Molecular target: EGFR wt (Homo sapiens (Human), UniProt P00533)
Sequence (P00533 25-1210): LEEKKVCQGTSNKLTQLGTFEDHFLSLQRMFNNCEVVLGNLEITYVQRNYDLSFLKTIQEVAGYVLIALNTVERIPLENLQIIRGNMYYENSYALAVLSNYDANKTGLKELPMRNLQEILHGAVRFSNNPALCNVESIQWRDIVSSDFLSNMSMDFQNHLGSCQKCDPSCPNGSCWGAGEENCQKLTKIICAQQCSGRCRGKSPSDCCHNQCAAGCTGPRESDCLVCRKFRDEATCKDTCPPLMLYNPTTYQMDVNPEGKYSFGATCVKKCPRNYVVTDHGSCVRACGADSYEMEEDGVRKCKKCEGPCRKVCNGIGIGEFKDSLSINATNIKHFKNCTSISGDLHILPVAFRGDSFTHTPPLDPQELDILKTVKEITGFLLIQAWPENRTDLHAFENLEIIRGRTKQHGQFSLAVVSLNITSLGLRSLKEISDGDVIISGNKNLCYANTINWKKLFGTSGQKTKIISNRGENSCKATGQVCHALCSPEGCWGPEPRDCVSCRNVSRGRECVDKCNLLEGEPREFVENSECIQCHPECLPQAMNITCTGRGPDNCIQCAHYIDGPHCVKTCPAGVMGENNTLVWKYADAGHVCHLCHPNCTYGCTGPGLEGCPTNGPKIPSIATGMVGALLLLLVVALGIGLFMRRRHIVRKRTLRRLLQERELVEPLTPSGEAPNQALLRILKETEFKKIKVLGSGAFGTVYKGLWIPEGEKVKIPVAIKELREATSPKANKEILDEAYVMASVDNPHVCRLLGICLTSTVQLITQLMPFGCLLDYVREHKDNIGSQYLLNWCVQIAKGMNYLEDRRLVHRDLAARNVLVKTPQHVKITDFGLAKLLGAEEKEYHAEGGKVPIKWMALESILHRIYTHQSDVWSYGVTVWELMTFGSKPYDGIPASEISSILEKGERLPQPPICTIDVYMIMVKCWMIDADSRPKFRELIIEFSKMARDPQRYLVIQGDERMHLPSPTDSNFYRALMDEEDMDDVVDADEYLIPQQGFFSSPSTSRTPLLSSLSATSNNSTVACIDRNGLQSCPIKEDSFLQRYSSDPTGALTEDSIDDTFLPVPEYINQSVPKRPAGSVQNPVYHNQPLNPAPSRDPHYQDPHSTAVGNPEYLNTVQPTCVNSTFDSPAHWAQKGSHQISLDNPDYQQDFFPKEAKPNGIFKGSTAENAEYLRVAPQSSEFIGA
Test: Biochemical EGFR inhibition assay (poly-GT substrate phosphorylation, TR-FRET LANCE Ultra)
Settings: 100 μM ATP; read-out: wt (100 μM ATP)
pIC50: −log10 of the molar value.
test readout: pIC50

                                item_smiles  test_readout  recorded_value
0  C[C@@H]1CCCOc2ccccc2-c2cc(ccn2)C(=O)N=C2Nc3ccccc3N2C1         pIC50          < 4.00
1  Cc1cc2cc(n1)-c1cnn(C)c1OCCCCCN1/C(=N/C2=O)Nc2ccccc21         pIC50          < 4.00
2  Cn1ncc2c1OCCCCCN1/C(=N/C(=O)c3cc(F)nc-2c3)Nc2ccccc21         pIC50          < 4.00
3  Cc1cc2cc(n1)-c1cnn(C)c1OCCC[C@@H](C)CN1/C(=N/C2=O)Nc2ccccc21         pIC50            6.05
4  Cc1cc2cc(n1)-c1cnn(C)c1OCCC[C@@H](C)CN1/C(=N/C2=O)Nc2ccc(Br)cc21         pIC50          < 4.00

---

As shown below, each of these molecules has a reported IC50 value.
Target: EGFR wt (Homo sapiens (Human), UniProt P00533)
Test: Biochemical EGFR inhibition assay (poly-GT substrate phosphorylation, TR-FRET LANCE Ultra)
Conditions: 5 μM ATP; read-out: wt (5 μM ATP)
Protocol: Initially, the inhibitory effect of compounds according to the invention is measured in biochemical assays which measure the phosphorylation activity of EGFR enzyme forms on poly-GT substrate in the presence of different concentrations of ATP (5 μM and 100 μM final assay concentration). […] These biochemical EGFR enzyme form compound dose-response assays quantify the kinase activity via phosphorylation of a tagged poly-GT substrate. […]
test readout: IC50 (nM)

>>> print(df.to_string())
                                item_smiles                               test_target  test_readout  scale_unit  recorded_value
0  Cn1ncc2c1OCCCCCN1/C(=N/C(=O)c3cc(F)nc-2c3)Nc2ccccc21  EGFR wt (Homo sapiens (Human), UniProt P00533)          IC50          nM              13
1  C[C@@H]1CCCOc2ccccc2-c2cc(ccn2)C(=O)N=C2Nc3ccccc3N2C1  EGFR wt (Homo sapiens (Human), UniProt P00533)          IC50          nM              18

---

Target: EGFR del19 T790M C797S (Homo sapiens, UniProt P00533, C797S/T790M, form not given)
Sequence (P00533 25-1210 T790M/C797S limits assumed, form open): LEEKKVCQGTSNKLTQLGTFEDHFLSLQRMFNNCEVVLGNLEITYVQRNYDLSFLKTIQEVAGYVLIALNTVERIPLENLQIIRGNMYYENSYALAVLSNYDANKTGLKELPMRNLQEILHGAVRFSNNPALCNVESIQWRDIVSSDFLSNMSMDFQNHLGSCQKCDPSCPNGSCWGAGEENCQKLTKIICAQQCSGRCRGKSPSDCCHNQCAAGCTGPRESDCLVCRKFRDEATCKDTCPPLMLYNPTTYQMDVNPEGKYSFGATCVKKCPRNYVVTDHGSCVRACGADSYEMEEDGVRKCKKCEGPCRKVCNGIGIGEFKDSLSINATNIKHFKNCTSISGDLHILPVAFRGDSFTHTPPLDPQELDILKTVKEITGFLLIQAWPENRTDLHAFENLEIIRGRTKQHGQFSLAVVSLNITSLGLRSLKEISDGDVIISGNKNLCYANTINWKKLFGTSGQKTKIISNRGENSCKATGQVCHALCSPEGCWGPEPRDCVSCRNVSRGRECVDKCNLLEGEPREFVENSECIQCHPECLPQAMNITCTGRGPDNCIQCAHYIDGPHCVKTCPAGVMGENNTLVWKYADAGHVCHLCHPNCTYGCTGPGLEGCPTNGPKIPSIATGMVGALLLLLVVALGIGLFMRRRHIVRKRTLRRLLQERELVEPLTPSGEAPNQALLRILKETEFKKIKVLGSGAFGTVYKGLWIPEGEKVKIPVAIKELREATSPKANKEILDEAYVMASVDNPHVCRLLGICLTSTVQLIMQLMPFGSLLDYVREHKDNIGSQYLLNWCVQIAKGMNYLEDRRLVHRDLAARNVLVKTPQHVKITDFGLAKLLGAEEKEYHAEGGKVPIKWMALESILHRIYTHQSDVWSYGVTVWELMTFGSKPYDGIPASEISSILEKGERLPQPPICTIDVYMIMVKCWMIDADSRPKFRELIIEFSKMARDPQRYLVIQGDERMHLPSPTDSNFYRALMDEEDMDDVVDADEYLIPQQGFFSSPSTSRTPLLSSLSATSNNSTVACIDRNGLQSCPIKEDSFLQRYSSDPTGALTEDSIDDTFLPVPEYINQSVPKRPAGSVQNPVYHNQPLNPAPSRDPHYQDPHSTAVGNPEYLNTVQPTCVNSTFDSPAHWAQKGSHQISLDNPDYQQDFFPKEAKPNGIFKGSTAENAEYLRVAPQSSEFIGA
Experiment: pEGFR assay: phosphorylation of EGFR at Tyr1068 in Ba/F3 cells (AlphaScreen Surefire)
Settings: 4 h
test readout: log10 of IC50 (log10 of the value in nM)

>>> print(df.to_string())
                                item_smiles   test_readout  recorded_value
0  CC1(C)CCCOc2ccccc2-c2cc(ccn2)C(=O)/N=C2\Nc3ccccc3N2C1  log10 of IC50            1.23
1  CC1(C)CCOc2ccccc2-c2cc(ccn2)C(=O)/N=C2\Nc3ccccc3N2CC1  log10 of IC50            1.40
2  Cc1cc2cc(n1)-c1cnn(C)c1OC[C@@H](O)C[C@@H](C)CN1/C(=N/C2=O)Nc2ccccc21  log10 of IC50           -0.15
3  Cc1cc2cc(n1)-c1cnn(C)c1OC[C@@H](C)CCCN1/C(=N/C2=O)Nc2ccc(N3CCN(C)CC3)cc21  log10 of IC50           -0.30
4  C[C@H]1CCCOc2ccccc2-c2cc(ccn2)C(=O)/N=C2\Nc3ccccc3N2C1  log10 of IC50            1.30
5  Cc1cc2cc(n1)-c1cnn(C)c1OCCC[C@H](O)CN1/C(=N/C2=O)Nc2ccccc21  log10 of IC50            0.87
6  Cc1cc2cc(n1)-c1cnn(C)c1OC[C@@H](C)CCCN1/C(=N/C2=O)Nc2cc(N3CCN(C)CC3)ccc21  log10 of IC50            0.36

---

Test system: Ba/F3 cells driven by EGFR del19 T790M
Test: Ba/F3 proliferation assay (CellTiter-Glo viability)
Assay type: cell-based, murine
Details: Mus musculus, BaF3, 72 h
test readout: IC50 (pM)

In [3]: df
Out[3]:
                                   molecule                             test_target  recorded_value
0  Cc1cc2cc(n1)-c1cnn(C)c1OCCC[C@@H](C)CN1/C(=N/C2=O)Nc2ccc(CN3CCN(C)CC3)cc21 [Compound I-021]  Ba/F3 cells driven by EGFR del19 T790M             300

---

As shown below, each of these compounds has a reported pIC50 value.
System: Ba/F3 cells driven by EGFR wt
Test: Ba/F3 proliferation assay (CellTiter-Glo viability)
Type: cell-based, murine
Settings: Mus musculus, BaF3, 72 h
Experimental: Plasmids containing EGFR mutants were obtained from GeneScript. To generate EGFR-dependent Ba/F3 models, Ba/F3 cells were transduced with retroviruses containing vectors that harbor EGFR isoforms. Platinum-E cells (Cell Biolabs) were used for retrovirus packaging. Retrovirus was added to Ba/F3 cells. […] CellTiter-Glo® Luminescent Cell Viability Assay (Promega) was performed and chemoluminescence was measured by using the multilabel Plate Reader VICTOR X4. […]
pIC50: −log10 of the molar value.
test readout: pIC50

In [3]: df
Out[3]:
                                   compound  recorded_value
0  Cc1cc2cc(n1)-c1cnn(C)c1OCCC[C@@H](C)CN1/C(=N/C2=O)Nc2ccc(CN3CCN(C)CC3)cc21            6.72
1  COc1cc2ncnc(Nc3ccc(F)c(Cl)c3)c2cc1NC(=O)/C=C/CN1CCCCC1            9.19
2  CC(=O)N1CCCCC(n2/c(=N/C(=O)c3ccnc(C)c3)[nH]c3cccc(Cl)c32)C1 (stereo not drawn) [Exp. WO 2014/121942, reference compound]            5.55

---

As shown below, each of these compounds has a reported IC50 value.
Test system: Ba/F3 cells driven by EGFR L858R T790M C797S
Assay: Ba/F3 proliferation assay (CellTiter-Glo viability)
Assay type: cell-based, murine
Settings: Mus musculus, BaF3, 72 h
test readout: IC50

>>> print(df.to_string())
                                   compound  recorded_value
0  CC(=O)N1CCCCC(n2/c(=N/C(=O)c3ccnc(C)c3)[nH]c3cccc(Cl)c32)C1 (centres unmarked) [Exp. WO 2014/121942, reference compound]         2200 nM
1  Cc1cc2cc(n1)-c1cnn(C)c1OCCC[C@@H](C)CN1/C(=N/C2=O)Nc2ccc(CN3CCN(C)CC3)cc21 [Compound I-021]          0.4 nM

---

Test system: Ba/F3 cells driven by EGFR L858R T790M
Assay: Ba/F3 proliferation assay (CellTiter-Glo viability)
Assay type: cell-based, murine
Details: Mus musculus, BaF3, 72 h
pIC50: −log10 of the molar value.
test readout: pIC50

>>> print(df.to_string())
                                item_smiles  recorded_value
0  Cc1cc2cc(n1)-c1cnn(C)c1OCCC[C@@H](C)CN1/C(=N/C2=O)Nc2ccc(CN3CCN(C)CC3)cc21            9.05

---

Biological target: EGFR (mutated) 695-1022, T790M, C797S, L858R (Homo sapiens (Human), UniProt P00533, C797S/L858R/T790M)
Sequence (P00533 695-1022 T790M/C797S/L858R): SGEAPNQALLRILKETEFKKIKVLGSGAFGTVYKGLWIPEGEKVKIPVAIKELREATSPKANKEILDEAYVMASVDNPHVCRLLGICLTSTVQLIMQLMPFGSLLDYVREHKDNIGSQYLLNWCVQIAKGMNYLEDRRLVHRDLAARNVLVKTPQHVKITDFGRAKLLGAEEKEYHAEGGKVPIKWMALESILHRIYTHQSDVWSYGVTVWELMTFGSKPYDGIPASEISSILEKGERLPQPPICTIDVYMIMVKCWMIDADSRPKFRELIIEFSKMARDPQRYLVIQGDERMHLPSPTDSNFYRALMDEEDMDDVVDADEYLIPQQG
Assay: Biochemical EGFR inhibition assay (poly-GT substrate phosphorylation, TR-FRET LANCE Ultra)
Conditions: 5 μM ATP; read-out: LR_TM_CS (5 μM ATP)
test readout: IC50 (nM)

>>> df
                                   compound  recorded_value
0  Cn1ncc2c1OCCCCCN1/C(=N/C(=O)c3cc(F)nc-2c3)Nc2ccccc21 [Compound I-037]             0.3
1  C[C@@H]1CCCOc2ccccc2-c2cc(ccn2)C(=O)N=C2Nc3ccccc3N2C1 [Compound I-046]             1.8

---

Target: EGFR del19 T790M C797S (Homo sapiens, UniProt P00533, C797S/T790M, form not given)
Assay: pEGFR assay: phosphorylation of EGFR at Tyr1068 in Ba/F3 cells (AlphaScreen Surefire)
Details: 4 h
pIC50: −log10 of the molar value.
As shown below, each of these compounds has a reported pIC50 value.
test readout: pIC50

>>> print(df.to_string())
                                    compound  test_readout  recorded_value
 0  Cc1cc2cc(n1)-c1cnn(C)c1OCC[C@H](O)[C@@H](C)CN1/C(=N/C2=O)Nc2ccccc21         pIC50            9.22
 1  Cn1ncc2c1OCCC(O)CCN1/C(=N/C(=O)c3cc(Cl)nc-2c3)Nc2ccccc21 (centres unmarked)         pIC50            8.28
 2  C[C@@H]1CCCOc2c(cnn2C)-c2cc(cc(F)n2)C(=O)/N=C2\Nc3ccccc3N2C1         pIC50            9.15
 3  Cc1cc2cc(n1)-c1cnn(C)c1OCCC[C@@H](C)CN1/C(=N/C2=O)Nc2ccc(N3CCN(C)CC3)cc21         pIC50            9.22
 4  C[C@@H]1C[C@H](O)COc2c(cnn2C)-c2cc(cc(Cl)n2)C(=O)/N=C2\Nc3cn(C)nc3N2C1         pIC50            8.46
 5  Cc1cc2cc(n1)-c1ccc(F)cc1OCCCCCN1/C(=N/C2=O)Nc2ccccc21         pIC50            7.16
 6  Cc1cc2cc(n1)-c1cnn(C)c1OCCC[C@@H](C)CN1/C(=N/C2=O)Nc2ccccc21         pIC50            9.10
 7  Cc1cc2cc(n1)-c1cnn(C)c1OCCCCCCN1/C(=N/C2=O)Nc2ccccc21         pIC50            8.38
 8  Cc1cc2cc(n1)-c1cnn(C)c1OCCC[C@@H](C)CN1/C(=N/C2=O)Nc2cc(N3CCN(C)CC3)ccc21         pIC50            9.22
 9  Cc1cc2cc(n1)-c1cnn(C)c1OCCC[C@@H](C)CN1/C(=N/C2=O)Nc2cn(C)nc21         pIC50            9.22
10  C[C@@H]1CCCOc2c(cnn2C)-c2cc(cc(C#N)n2)C(=O)/N=C2\Nc3ccccc3N2C1         pIC50            8.89
11  C[C@@H]1CCCOc2c(cnn2C)-c2cc(cc(Cl)n2)C(=O)/N=C2\Nc3ccc(CN4CCN(C)CC4)cc3N2C1         pIC50            9.10
12  Cc1cc2cc(n1)-c1cnn(C)c1OCCC(O)CCN1/C(=N/C2=O)Nc2ccccc21 (centres unmarked)         pIC50            8.92
13  Cc1cc2cc(n1)-c1ccccc1OCCCCCN1/C(=N/C2=O)Nc2ccccc21         pIC50            7.80
